System: HEK-293T
measurement.notes: Multiplex assay against HEK293T
Type: toxicity, cell-based
stated.conditions: human, 24 h, 10 µM, compound concentration 10 uM, replicate 2
Rule: Population Apoptotic (%) below 40% gives True. Equal to or above 40% gives False.

1) O=c1nc2[nH]c3ccccc3nc-2c(=O)[nH]1 [ALLOXAZINE]
False
2) CN(C)C/C=C/C(=O)Nc1ccc(C(=O)N2CCCC(Nc3ncc(Cl)c(-c4c[nH]c5ccccc45)n3)C2)cc1 (configuration not stated)
False

Exam item: Would you kindly verify if Population Apoptotic (%) of OCCCNc1cc(-c2ccnc(Nc3cccc(Cl)c3)n2)ccn1 is strictly less than 40%?
Marked response: False

Exam item: Would you kindly verify if Population Apoptotic (%) of Cc1sc2c(c1C)C(c1ccc(Cl)cc1)=N[C@H](CC(=O)OC(C)(C)C)c1nnc(C)n1-2 is strictly less than 40%?
Marked response: False

Exam item: Would you kindly verify if Population Apoptotic (%) of CCC(=O)OCC(=O)[C@@]1(OC(=O)CC)[C@@H](C)C[C@H]2[C@@H]3CCC4=CC(=O)C=C[C@]4(C)[C@@]3(Cl)[C@@H](O)C[C@@]21C [BECLOMETHASONE DIPROPIONATE] is strictly less than 40%?
Marked response: False

Data provenance is ChEMBL document CHEMBL5058577.
